- targetEntity: MLKL (Homo sapiens, UniProt Q8NB16)
- Sequence (Q8NB16 whole entry): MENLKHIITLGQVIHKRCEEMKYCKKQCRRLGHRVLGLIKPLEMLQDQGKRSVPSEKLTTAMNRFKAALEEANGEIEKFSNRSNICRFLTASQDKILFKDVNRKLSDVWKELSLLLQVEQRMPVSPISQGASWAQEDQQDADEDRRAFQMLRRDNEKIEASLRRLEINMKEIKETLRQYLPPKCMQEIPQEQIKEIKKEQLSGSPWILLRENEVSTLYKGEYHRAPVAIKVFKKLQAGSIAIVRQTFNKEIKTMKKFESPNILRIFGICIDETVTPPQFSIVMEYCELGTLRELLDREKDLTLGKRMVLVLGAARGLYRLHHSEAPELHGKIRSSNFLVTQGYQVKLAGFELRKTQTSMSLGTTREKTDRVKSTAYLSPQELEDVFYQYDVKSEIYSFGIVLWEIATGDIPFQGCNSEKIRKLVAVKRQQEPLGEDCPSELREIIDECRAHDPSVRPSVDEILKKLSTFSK
- testName: MLKL degradation assay in HepG2 cell line (western blot)
- Type: cell-based
- Parameters: endogenous in cells; host or cells: HepG2 or HaCaT
- setupConditions: compound 10 μM; cell line not given
// map Degradation assay (Degradation %) 10 μM onto a label; ranges bottom range: < 40%; center range: ≥ 40% and < 80%; top range: ≥ 80%

compound	classification
Nc1ncc(-c2cnn(C3CCN(CC4CCN(CC(=O)N5CC(Nc6cccc7c6C(=O)N(C6CCC(=O)NC6=O)C7=O)C5)CC4)CC3)c2)nc1C(=O)OC(C(=O)Nc1ccc(F)cc1)c1ccccc1 (stereo not shown)	bottom range
Cc1ncsc1-c1ccc(CNC(=O)[C@@H]2C[C@@H](O)CN2C(=O)[C@@H](NC(=O)CN2CCC(CN3CCC(n4cc(-c5cnc(N)c(C(=O)O[C@@H](C(=O)Nc6ccc(F)cc6)c6ccccc6)n5)cn4)CC3)CC2)C(C)(C)C)cc1	bottom range
Nc1ncc(-c2cnn(C3CCN(CCCCCCCCCCNC(=O)COc4ccc5c(c4)C(=O)N(C4CCC(=O)NC4=O)C5=O)CC3)c2)nc1C(=O)O[C@@H](C(=O)Nc1ccc(F)cc1)c1ccccc1 (stereo partly shown)	center range
Nc1ncc(-c2cnn(C3CCN(C4CC5(CCN(CC6CCN(C(=O)c7ccc8c(c7)CN(C7CCC(=O)NC7=O)C8=O)CC6)CC5)C4)CC3)c2)nc1C(=O)O[C@@H](C(=O)Nc1ccc(F)cc1)c1ccccc1 (stereo partly shown)	top range
Nc1ncc(-c2cnn(C3CCN(C(=O)C4CCN(C(=O)CCc5ccc6c(c5)C(=O)N(C5CCC(=O)NC5=O)C6=O)CC4)CC3)c2)nc1C(=O)O[C@@H](C(=O)Nc1ccc(F)cc1)c1ccccc1 (stereo partly shown)	center range
Nc1ncc(-c2cnn(C3CCN(CCOC4CCN(C(=O)CC5CCN(c6cccc7c6C(=O)N(C6CCC(=O)NC6=O)C7=O)CC5)CC4)CC3)c2)nc1C(=O)O[C@@H](C(=O)Nc1ccc(F)cc1)c1ccccc1 (stereo partly shown)	top range
Nc1ncc(-c2cnn(C3CCN(C[C@H]4CC[C@H](CNC(=O)C5CCN(c6cccc7c6C(=O)N(C6CCC(=O)NC6=O)C7=O)CC5)CC4)CC3)c2)nc1C(=O)O[C@@H](C(=O)Nc1ccc(F)cc1)c1ccccc1 (stereo partly shown)	top range
Nc1ncc(-c2cnn(C3CCN(CC4CCN(CC(=O)N5CCC(Nc6cccc7c6C(=O)N(C6CCC(=O)NC6=O)C7=O)CC5)CC4)CC3)c2)nc1C(=O)OC(C(=O)Nc1ccc(F)cc1)c1ccccc1 (stereo not shown)	bottom range

Now for another entry.
Query block: Textbook exercise: identify the category of the compound given here, Nc1ncc(-c2cnn([C@@H]3CCN(CCOCCOCCNC(=O)CNc4ccc5c(c4)C(=O)N(C4CCC(=O)NC4=O)C5=O)C3)c2)nc1C(=O)OC(C(=O)Nc1ccc(F)cc1)c1ccccc1 (stereo partly shown) , according to its measured value.
Result block: bottom range
